assay-details: Primary qHTS for delayed death inhibitors of the malarial parasite plastid, 48 hour incubation; also: potency is read from the fitted curve at half-maximal effect
details: P. falciparum luciferase growth in erythrocytes; series mostly up to 28.7 µM
Hit rate of the full screen: of about 310,000 compounds, about 18,000 (5.8%) were called active. Inconclusive results (about 22%) are left out. The sample as a whole holds a higher share of actives than the screen did.
observable: Potency

>>> meas_value("COc1ccc(CC(NC(C)=O)C(=O)NC2CCN(C(=O)c3ccc(Cl)cc3)CC2)cc1 (centres undefined)")
"inactive"
>>> meas_value("COc1ccccc1NC(=O)COC(=O)Cc1ccc(S(=O)(=O)N2CCCCC2)s1")
"inactive"
>>> meas_value("COc1ccc(CNC(=O)CSc2n[nH]c(N)n2)cc1OC")
"inactive"
>>> meas_value("COc1cc(NS(=O)(=O)c2ccc(NC(=S)NC(=O)c3ccc(Br)cc3)cc2)ncn1")
"inactive"
>>> meas_value("O=C(NC(=S)Nc1ccc(Cl)c(C(=O)O)c1)c1cncc(Br)c1")
"inactive"
>>> meas_value("Cn1nccc1/C=N\\NC(=O)c1ccc(Cl)cc1")
"inactive"
>>> meas_value("Cc1ccc(NC(=O)c2cccs2)cc1S(=O)(=O)N(C)C")
"inactive"
>>> meas_value("CCOc1cc(C(=S)N2CCOCC2)ccc1OS(=O)(=O)c1ccc(Br)cc1")
"inactive"
>>> meas_value("CCN(Cc1ccccc1)C(=O)Cc1ccc(OC)c(S(=O)(=O)N2CCOCC2)c1")
"inactive"
>>> meas_value("O=C(NCc1ccccc1)C1=C[C@H](C2CC2)C[C@H](OCc2ccc(CO)cc2)O1")
"inactive"
>>> meas_value("Cc1ccc(-c2noc(CNC(=O)c3ccoc3C)n2)cc1")
"inactive"
>>> meas_value("COC(=O)c1ccc2c(C(C)(C)O)c(C(C)(C)O)[nH]c2c1")
"inactive"
>>> meas_value("CC(=O)O[C@H]1c2ccccc2-c2ccccc2[C@@H]1OC(C)=O")
"inactive"
>>> meas_value("C=CCn1c(SCC(=O)NCCCO)nc2sc3c(c2c1=O)CCC3")
"inactive"
>>> meas_value("CC(OC(=O)CN1C(=O)c2ccccc2C1=O)C(=O)c1ccccc1 (centres undefined)")
"inactive"
>>> meas_value("CCOC(=O)C1CCN(C(=O)COc2cccc3ccccc23)CC1")
"inactive"
>>> meas_value("O=C(NC(=S)N1CCCCC1c1cccnc1)c1ccccc1 (centres undefined)")
"inactive"
>>> meas_value("Cc1cc(=O)oc2cc(NC(=O)C(C)Oc3ccccc3)ccc12 (centres undefined)")
"inactive"
>>> meas_value("Cc1ccc(NC(=O)CNCc2ccccn2)cc1S(=O)(=O)N(C)C")
"16.5 µM (active)"
>>> meas_value("O=C(Nc1ccc(Br)cn1)c1ccc([N+](=O)[O-])o1")
"inactive"
>>> meas_value("CCn1c(CN2C(=O)CSc3ccccc32)n[nH]c1=S")
"inactive"
>>> meas_value("O=C(NCCCn1ccnc1)c1cc(Br)c(Br)s1")
"inactive"
>>> meas_value("O=C(c1cc(COc2ccc(F)cc2F)on1)N1CCOCC1")
"inactive"
>>> meas_value("CC(C)[C@H](NC(=O)N1CCn2c1nc1ccccc12)C(=O)NC1CC1")
"inactive"
>>> meas_value("O=C(CN1C(=O)COc2ccccc21)NCCN1CCc2ccccc2C1")
"inactive"
>>> meas_value("COC(=O)C1(O)CC(C(C)C)=NN1C(=O)c1ccc(Cl)cc1 (centres undefined)")
"inactive"
>>> meas_value("Cc1cccc(NC(=O)c2ccc([N+](=O)[O-])o2)c1")
"13.1 µM (active)"
>>> meas_value("O=C(Cc1c(O)c2ccccc2[nH]c1=O)NCc1ccccc1")
"inactive"
>>> meas_value("CCCCn1c(SCC(=O)N2CCOCC2)nc2c1c(=O)n(C)c(=O)n2C")
"inactive"
>>> meas_value("O=C(Cc1ccccc1)Nc1ccc(NC(=O)c2cccnc2)cc1")
"inactive"
>>> meas_value("CCC(NC(=O)C1CCCC1)c1ccc(C)cc1 (centres undefined)")
"inactive"
>>> meas_value("CCc1ccc(NC(=O)CS(=O)CC(=O)N2CCN(c3ccccc3F)CC2)cc1 (centres undefined)")
"inactive"
>>> meas_value("CCCc1ccc(C(=O)COC(=O)CN2C(=O)NC3(CCCCC3C)C2=O)cc1 (centres undefined)")
"inactive"
>>> meas_value("O=C(COCc1cc(-c2ccc3c(c2)OCO3)on1)N1CCN(c2cccc(Cl)c2)CC1")
"inactive"
>>> meas_value("Oc1c(Cl)cc(Cl)c(Cl)c1Cc1c(O)c(Cl)cc(Cl)c1Cl")
"11.7 µM (active)"
>>> meas_value("Cc1ccc(-c2cc(C(=O)NCc3cn(C)nc3C)c3cc(Br)ccc3n2)cc1")
"2.94 µM (active)"
>>> meas_value("CC(=O)Nc1ccc(NS(=O)(=O)c2ccc3c(c2)NC(=O)CC(=O)N3)cc1")
"inactive"
>>> meas_value("CCn1cc(/C=C(\\NC(=O)c2ccc(C)cc2)C(=O)NCCN2CCOCC2)c2ccccc21")
"inactive"
>>> meas_value("CC(C)(C)c1ccc(CN2C(=O)CN=C(c3ccccc3)c3ccccc32)cc1")
"2.08 µM (active)"
>>> meas_value("CCSc1nc2sc3c(c2c(=O)[nH]1)CC(C)(C)OC3")
"inactive"
>>> meas_value("Cc1ccc2[nH]c(=O)c(CN(C)S(=O)(=O)c3cccc4nonc34)cc2c1")
"inactive"
>>> meas_value("CN1C(C(=O)NCC2CC2)CC2Cn3c(nc4ccccc43)C21 (centres undefined)")
"inactive"
>>> meas_value("O=C(Nc1ccccc1C(F)(F)F)N1CCCC1c1cccnc1 (centres undefined)")
"inactive"
>>> meas_value("CCc1ccc(C(=O)N2CCN(S(=O)(=O)c3sc(C(=O)O)c(C)c3C(=O)O)CC2)cc1")
"inactive"
